- System: clinical isolates containing an I50L substitution (and their baseline isolates)
- TEST NAME: PhenoSense phenotypic susceptibility of clinical isolates from ATV-treated patients who developed I50L
- Assay type: cell-based, HIV-1
- MEASUREMENT PARAMETERS: Subject 100, Week 1.7
QUANTITY KIND: Susceptibility, Fold Change in EC50 relative to reference strain (Fold Change)
One number for each entry, in Fold Change.

Solved cases (2 shown):
In: Look at this molecule and give its reported Susceptibility, Fold Change in EC50 relative to reference strain. Cc1c(O)cccc1C(=O)N[C@@H](CSc1ccccc1)[C@H](O)CN1C[C@H]2CCCC[C@H]2C[C@H]1C(=O)NC(C)(C)C [NFV, nelfinavir]
Out: 2.1

In: Need Susceptibility, Fold Change in EC50 relative to reference strain of CC(C)(C)NC(=O)[C@@H]1C[C@@H]2CCCC[C@@H]2CN1C[C@@H](O)[C@H](Cc1ccccc1)NC(=O)[C@H](CC(N)=O)NC(=O)c1ccc2ccccc2n1 [SQV, saquinavir] , thanks.
Out: 1.3

---
In: Returns the measured Susceptibility, Fold Change in EC50 relative to reference strain for the input molecule. Input: CC(C)c1nc(CN(C)C(=O)N[C@H](C(=O)N[C@@H](Cc2ccccc2)C[C@H](O)[C@H](Cc2ccccc2)NC(=O)OCc2cncs2)C(C)C)cs1 [RTV, ritonavir]
Out: 2.2
